Where do the numbers come from? From patent EP0851862B1.

- assayed-system: 5-HT1A receptor sites (Rattus norvegicus, UniProt P19327)
- Sequence (P19327 1-422): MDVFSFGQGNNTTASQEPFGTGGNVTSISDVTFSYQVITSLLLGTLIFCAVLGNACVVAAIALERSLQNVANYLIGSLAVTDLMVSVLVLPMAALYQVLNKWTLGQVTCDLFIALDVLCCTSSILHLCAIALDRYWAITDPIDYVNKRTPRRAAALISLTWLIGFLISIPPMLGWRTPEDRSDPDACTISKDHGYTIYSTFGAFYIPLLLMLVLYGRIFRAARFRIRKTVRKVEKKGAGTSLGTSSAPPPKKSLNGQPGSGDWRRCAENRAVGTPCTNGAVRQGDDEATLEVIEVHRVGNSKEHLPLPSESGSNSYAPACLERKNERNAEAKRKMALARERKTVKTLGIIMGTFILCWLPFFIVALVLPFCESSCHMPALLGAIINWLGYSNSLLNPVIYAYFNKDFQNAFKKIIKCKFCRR
measured-quantity: pIC50
As a rule, pIC50 stands for the negative log10 of the concentration, concentration in M.

In the examples that follow, each entry is paired with its recorded pIC50.
c1ccc(N2CCN(Cc3nc4c(s3)CCc3ccccc3-4)CC2)cc1 ... 7.38
c1ccc(N2CCN(CCc3nc4c(s3)CCc3ccccc3-4)CC2)cc1 ... 6.77

Next:
Param item = c1ccc(N2CCN(CCCCc3nc4c(s3)CCc3ccccc3-4)CC2)cc1 ; retrieve measured pIC50.
7.17

====

- assayed-system: α1
- experiment-description: receptor binding profile, α1
- experimental-conditions: read-out: α1 Affinity is expressed as IC50
Where a name gives a salt, the structure may show the parent alone.
Below, each entry is listed with its recorded IC50.
Record the value in µM, omitting the unit from your answer.

Observe how each entry below is paired with its result.
c1ccc(N2CCN(CCCCc3nc4c(s3)CCc3ccccc3-4)CC2)cc1 [(5)] ... 0.17
c1ccc(N2CCN(Cc3nc4c(s3)CCc3ccccc3-4)CC2)cc1 [(2)] ... 0.13
COc1ccc2c(c1)CCc1sc(CCCN3CCN(c4ccccc4OC)CC3)nc1-2 [(6), hydrochloride] ... 0.09
c1ccc(N2CCN(CCc3nc4c(s3)CCc3ccccc3-4)CC2)cc1 [(3)] ... 0.11

Returns the measured IC50 for the input compound. Input: c1ccc(N2CCN(CCCc3nc4c(s3)CCc3ccccc3-4)CC2)cc1 [(4)]
0.12

====

A collection of molecules and their measured pIC50
- assayed-system: 5-HT2 (Rattus norvegicus, UniProt P14842)
- Sequence (P14842 whole entry): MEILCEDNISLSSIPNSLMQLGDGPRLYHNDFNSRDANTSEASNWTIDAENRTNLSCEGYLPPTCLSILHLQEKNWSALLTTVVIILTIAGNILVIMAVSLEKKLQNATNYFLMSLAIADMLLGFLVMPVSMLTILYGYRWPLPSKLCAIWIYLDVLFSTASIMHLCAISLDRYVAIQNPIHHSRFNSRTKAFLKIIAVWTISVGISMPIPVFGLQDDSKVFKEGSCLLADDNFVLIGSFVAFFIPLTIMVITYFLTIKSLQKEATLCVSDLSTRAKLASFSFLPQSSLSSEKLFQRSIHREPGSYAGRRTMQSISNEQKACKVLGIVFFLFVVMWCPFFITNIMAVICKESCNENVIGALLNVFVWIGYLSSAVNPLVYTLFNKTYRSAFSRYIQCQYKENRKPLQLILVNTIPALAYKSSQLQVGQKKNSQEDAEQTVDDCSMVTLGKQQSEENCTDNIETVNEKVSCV
Recall that pIC50 is obtained by taking minus log10 of the concentration measured in molar.

Use these answered entries as a reference point.
c1ccc(N2CCN(Cc3nc4c(s3)CCc3ccccc3-4)CC2)cc1 ... 6.52
c1ccc(N2CCN(CCCCc3nc4c(s3)CCc3ccccc3-4)CC2)cc1 ... 7.18

Dear colleague, I am looking for the recorded pIC50 of the following molecule: c1ccc(N2CCN(CCc3nc4c(s3)CCc3ccccc3-4)CC2)cc1
7.20
